Property Label: melting point

Here are 5 molecules together with their reported answers.
molecule="COc1cc(O)c(C(=O)/C=C/c2ccc3ccccc3c2)cc1C1OC(CO)C(O)C(O)C1O (stereo not drawn)" endpoint_result="236 to 239 °C"
molecule=COC(=O)OC[C@H]1O[C@@H](c2cc(C(=O)/C=C/c3ccc4occc4c3)c(O)cc2OC)[C@H](O)[C@@H](O)[C@@H]1O endpoint_result="195 to 196 °C"
molecule="COc1cc(O)c(C(=O)/C=C/c2ccc3c(c2)CCC3)cc1C1OC(CO)C(O)C(O)C1O (stereo not drawn)" endpoint_result="245 to 248 °C"
molecule="COc1cc(O)c(C(=O)/C=C/c2ccc3[nH]ccc3c2)cc1C1OC(CO)C(O)C(O)C1O (stereo not drawn)" endpoint_result="194 to 196 °C"
molecule="COc1cc(O)c(C(=O)CCc2cc3ccccc3o2)cc1C1OC(CO)C(O)C(O)C1O (stereo not drawn)" endpoint_result="216 to 217 °C"

Which measured melting point value corresponds to Cc1cc(O)c(C(=O)/C=C/c2ccc3occc3c2)c(CC2OC(CO)C(O)C(O)C2O)c1 (stereo not drawn) ?
103 to 105 °C

====

Entries and their measured melting point follow.

Here are 3 compounds together with their reported answers.
compound="COc1cc(C)c(C(=O)/C=C/c2ccc3occc3c2)cc1C1OC(CO)C(O)C(O)C1O (centres unmarked)" property_label="melting point" endpoint_result="137 to 138 °C"
compound="COc1cc(C)cc(CC2OC(CO)C(O)C(O)C2O)c1C(=O)/C=C/c1ccc2occc2c1 (centres unmarked) [Compound 57]" property_label="melting point" endpoint_result="118 to 120 °C"
compound="COc1cc(O)c(C(=O)CCc2ccc3[nH]ccc3c2)cc1C1OC(CO)C(O)C(O)C1O (centres unmarked)" property_label="melting point" endpoint_result="66 to 71 °C"

Lab note: next compound to report on.
Which measured melting point value corresponds to COc1cc(O)c(C(=O)/C=C/c2ccc3sccc3c2)cc1C1OC(CO)C(O)C(O)C1O (centres unmarked) ?
217 to 220 °C

====

Entries and their measured melting point follow.

Here are 3 compounds together with their reported answers.
compound="CCOc1cc(OCC)c(C2OC(CO)C(O)C(O)C2O)cc1C(=O)/C=C/c1ccc2occc2c1 (stereo not shown)" endpoint_result="120 to 121 °C"
compound="COc1cc(O)c(C(=O)/C=C/c2ccsc2)cc1C1OC(CO)C(O)C(O)C1O (stereo not shown)" endpoint_result="239 to 242 °C"
compound="COC(=O)OCC1OC(c2cc(C(=O)CCc3ccc4occc4c3)c(O)cc2OC)C(O)C(O)C1O (stereo not shown)" endpoint_result="120 to 121 °C"

Lab note: next compound to report on.
Which measured melting point value corresponds to COc1cc(O)c(C(=O)/C=C/c2ccc(C)cc2)cc1C1OC(CO)C(O)C(O)C1O (stereo not shown) ?
181 to 183 °C
